System: MOLT-4 leukemia
Assay name: NCI-60 one-dose screen, 48 h (100 = growth as untreated, 0 = no growth, -100 = all killed)
Condition summary: 10 µM unless noted
Compounds without any hit were thinned out: in the full panel of roughly 83,000, 20% have a hit. The source made the active and inactive calls. The calls were made as follows: active = growth percent below 10; inactive = the rest.

Compound: O=C(NCCN1CCOCC1)OCc1nc2nc(Cl)nc(N3CCOCC3)c2[nH]1
Test target: MOLT-4 leukemia
growth: 19% (inactive)

Compound: O=C(Nc1sc2c(c1C(=O)O)CCCC2)c1cccc(C(F)(F)F)c1
Test target: MOLT-4 leukemia
growth: 96.9% (inactive)

Compound: CCOC(=O)c1c(SC)nn(-c2cc(=O)[nH]c3ccc(Br)cc23)c1N
Test target: MOLT-4 leukemia
growth: 111% (inactive)

Compound: COc1ccc(/C=C/C(=O)c2ccc(Nc3ncnc4ccccc34)cc2)cc1OC
Test target: MOLT-4 leukemia
growth: 48.2% (inactive)

Compound: C=C1C(=O)O[C@H]2[C@H]1CC/C(COC(=O)/C=C/c1c[nH]c3ccccc13)=C\CC[C@@]1(C)O[C@@H]21
Test target: MOLT-4 leukemia
growth: 5.13% (active)

Compound: O=C(/C=C/c1ccc[nH]1)c1ccc(-n2ccc(C(F)(F)F)n2)cc1
Test target: MOLT-4 leukemia
growth: 72.5% (inactive)

Compound: O=C(O)CNC(=O)CN1C(=O)c2ccccc2C1=O
Test target: MOLT-4 leukemia
growth: 91.8% (inactive)

Compound: CN1C(=O)N(C)C2NC(N/N=C/c3ccccc3)=NC21 (stereo not given)
Test target: MOLT-4 leukemia
growth: 103% (inactive)

Compound: Cc1ccccc1-c1cc(Cc2ccc(F)cc2)c(=O)[nH]n1
Test target: MOLT-4 leukemia
growth: 58.1% (inactive)

Compound: COc1cc(CCNc2nc3cc(N)cc(N)c3nc2-c2ccccc2)cc(OC)c1
Test target: MOLT-4 leukemia
growth: -66.5% (active)
